# target entity: T1, cyno CD3 (cyno (cynomolgus monkey), UniProt Q95LI5 22-198)
# T1 construct: whole, on cells; also called CD3 on Cynomolgus T-cells
# T1 sequence (Q95LI5 22-198): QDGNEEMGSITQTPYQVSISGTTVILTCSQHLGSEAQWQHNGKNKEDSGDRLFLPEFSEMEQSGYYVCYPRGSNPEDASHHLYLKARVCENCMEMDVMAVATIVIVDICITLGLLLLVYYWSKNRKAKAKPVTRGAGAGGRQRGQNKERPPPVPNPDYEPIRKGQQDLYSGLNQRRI
# method description: cell binding, cynomolgus T-cells
Assign Bmax to each entry below.
Enter a number only.

input: Recorded Bmax for Fab1-HK129-LL157-BiFolate-Bi5KPEG (Fab, V domains shown, pAF at LL157 (Kabat) conjugated to a bifunctional linker carrying folate and 5K PEG (oxime); pAF at HK129 (Kabat) conjugated to a bifunctional linker carrying folate and 5K PEG (oxime), From E. coli; carries two folates and two 5K PEG; also called Fab1-HK129-LL157-Bi5KPEG-BiFolate) VH: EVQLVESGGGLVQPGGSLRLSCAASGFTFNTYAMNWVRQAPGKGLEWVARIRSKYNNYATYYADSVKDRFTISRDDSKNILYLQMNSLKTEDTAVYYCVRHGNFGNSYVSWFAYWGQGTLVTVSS VL: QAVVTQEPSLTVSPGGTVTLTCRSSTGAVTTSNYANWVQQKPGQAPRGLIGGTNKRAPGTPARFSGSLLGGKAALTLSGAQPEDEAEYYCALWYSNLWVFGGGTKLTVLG , please?
output: 13200

input: Please answer likewise for Fab1-HK129-pAF (Fab, V domains shown, para-acetyl-phenylalanine (pAF) at HK129 (Kabat), From E. coli; carries no folate and no PEG; also called Fab1-HK129-pAF1; anti-CD3 Fab1-HK129-pAF control) VH: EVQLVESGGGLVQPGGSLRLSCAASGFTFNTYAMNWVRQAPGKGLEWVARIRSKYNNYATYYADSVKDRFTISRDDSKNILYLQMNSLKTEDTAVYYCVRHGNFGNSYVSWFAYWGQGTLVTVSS VL: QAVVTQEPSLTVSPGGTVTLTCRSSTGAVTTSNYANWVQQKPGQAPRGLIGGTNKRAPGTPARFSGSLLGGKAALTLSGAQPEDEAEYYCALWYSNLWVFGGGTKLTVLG
output: 26600

input: Please answer likewise for Fab1-HK129-LL157-BiFolate (Fab, V domains shown, pAF at LL157 (Kabat) conjugated to folate (oxime); pAF at HK129 (Kabat) conjugated to folate (oxime), From E. coli; carries two folates) VH: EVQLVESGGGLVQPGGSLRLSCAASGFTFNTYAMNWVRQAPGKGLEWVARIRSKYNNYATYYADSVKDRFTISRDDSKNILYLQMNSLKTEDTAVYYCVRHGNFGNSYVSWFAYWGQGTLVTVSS VL: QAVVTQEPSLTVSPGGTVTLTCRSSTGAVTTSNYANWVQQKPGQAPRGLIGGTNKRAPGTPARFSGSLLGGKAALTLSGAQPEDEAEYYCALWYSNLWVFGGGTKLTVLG
output: 19600

input: Please answer likewise for Fab1-HK129-5KPEG-Folate (Fab, V domains shown, pAF at HK129 (Kabat) conjugated to a bifunctional linker carrying folate and a linear 5K PEG (oxime), From E. coli; also called Fab1-5KPEG-Folate) VH: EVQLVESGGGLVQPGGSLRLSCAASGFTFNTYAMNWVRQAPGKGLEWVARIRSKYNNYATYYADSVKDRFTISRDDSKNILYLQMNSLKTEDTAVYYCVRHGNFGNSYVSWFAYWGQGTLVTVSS VL: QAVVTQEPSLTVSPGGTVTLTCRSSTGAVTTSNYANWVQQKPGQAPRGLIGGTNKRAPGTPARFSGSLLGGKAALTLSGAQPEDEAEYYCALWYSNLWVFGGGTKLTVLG
output: 19900

input: Please answer likewise for Fab1-HK129-LL157-pAF (Fab, V domains shown, pAF at LL157 (Kabat); pAF at HK129 (Kabat), From E. coli; double pAF variant, unconjugated; also called Fab1-HK129pAF-LL157pAF) VH: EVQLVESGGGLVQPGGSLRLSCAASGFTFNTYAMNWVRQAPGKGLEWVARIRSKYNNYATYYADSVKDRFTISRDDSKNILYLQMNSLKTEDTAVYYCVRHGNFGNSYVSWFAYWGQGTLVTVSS VL: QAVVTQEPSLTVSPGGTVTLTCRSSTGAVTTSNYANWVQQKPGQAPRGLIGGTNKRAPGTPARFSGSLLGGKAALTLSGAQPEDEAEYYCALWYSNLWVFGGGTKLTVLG
output: 23400

input: Please answer likewise for Fab1-HK129-Folate (Fab, V domains shown, pAF at HK129 (Kabat) conjugated to folate (oxime), From E. coli; also called Folate lead; parent control) VH: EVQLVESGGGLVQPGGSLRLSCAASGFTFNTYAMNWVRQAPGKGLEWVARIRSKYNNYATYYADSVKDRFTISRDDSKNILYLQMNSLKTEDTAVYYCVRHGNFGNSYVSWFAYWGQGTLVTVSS VL: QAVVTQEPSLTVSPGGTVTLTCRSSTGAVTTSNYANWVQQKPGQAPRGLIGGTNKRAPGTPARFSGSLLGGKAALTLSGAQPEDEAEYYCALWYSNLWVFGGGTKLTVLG
output: 25700
